# ΔTm measurements, system: Bromodomain-containing protein 4 (Homo sapiens, UniProt O60885)
Quick note: give the figure in °C, leave out the unit.

Illustrative cases are given below, each with its answer.
INSERT INTO results (compound, property_measured, result_unit, readout_number) VALUES
  ('Cc1noc(C)c1-c1ccc2c(c1)O[C@H](CC1CC1)C(=O)N2CCN1CCOCC1', 'ΔTm', '°C', 6.9),
  ('Cc1noc(C)c1-c1ccc2c(c1)OC(c1ccccc1F)C(=O)N2 (configuration not stated)', 'ΔTm', '°C', 7.5),
  ('Cc1sc2c(c1C)C(c1ccc(Cl)cc1)=N[C@@H](CC(=O)OC(C)(C)C)c1nnc(C)n1-2', 'ΔTm', '°C', 11.1),
  ('Cc1noc(C)c1-c1ccc2c(c1)O[C@H](CC(C)C)C(=O)N2', 'ΔTm', '°C', 9.3),
  ('CCN1C(=O)[C@@H](CC2CC2)Oc2cc(-c3c(C)noc3C)ccc21', 'ΔTm', '°C', 6.9);

Query :: Could you tell me which ΔTm is on file for Cc1noc(C)c1-c1ccc2c(c1)OC(c1ccccc1)C(=O)N2 (configuration not stated) ?
Result :: 7.6

Query :: Same lookup for Cc1noc(C)c1-c1ccc2c(c1)O[C@H](CC1CC1)C(=O)N2 , please.
Result :: 8.4

----------
Test: Oral bioavailability in Sprague-Dawley rat at 10 mg/kg administered as single dose
Assay type: ADME, organism-based
Conditions: in vivo
PROPERTY MEASURED: bioavailability (%)
Quick note: give the figure in %, leave out the unit.

Query :: Could you tell me which bioavailability is on file for Cc1noc(C)c1-c1ccc2c(c1)O[C@H](CC1CC1)C(=O)N2 ?
Result :: 29.3

----------
Tested on: PC-3
Experiment: Antiproliferative activity against human PC3 cells treated at 12 hrs post cell seeding measured at 72 to 144 hrs post cell seeding by Cell-Titer Glo assay
Assay type: functional, cell-based
PROPERTY MEASURED: IC50 (µM)
Quick note: give the figure in µM, leave out the unit.

Illustrative cases are given below, each with its answer.
INSERT INTO measurements (compound, result_unit, readout_number) VALUES
  ('Cc1sc2c(c1C)C(c1ccc(Cl)cc1)=N[C@@H](CC(=O)OC(C)(C)C)c1nnc(C)n1-2', 'µM', 3.01),
  ('Cc1noc(C)c1-c1ccc2c(c1)O[C@H](CC(C)C)C(=O)N2', 'µM', 10.4);

Query :: Can you look up IC50 on PC-3 for Cc1noc(C)c1-c1ccc2c(c1)O[C@H](CC1CC1)C(=O)N2 ?
Result :: 10.8

----------
Biological target: Transcription initiation factor TFIID subunit 1 (Homo sapiens)
Assay: Binding affinity to His6-tagged human TAF1 (R1377 to D1503 residues) expressed in Escherichia coli BL21(DE3) assessed as change in melting temperature at 200 uM by SYPRO orange dye based fluorescence assay
ΔTm: recorded values
Quick note: give the figure in °C, leave out the unit.

Illustrative cases are given below, each with its answer.
INSERT INTO results (molecule, tgt, readout_number) VALUES
  ('Cc1noc(C)c1-c1ccc2c(c1)O[C@H](CC(C)C)C(=O)N2', 'Transcription initiation factor TFIID subunit 1 (Homo sapiens)', 0),
  ('Cc1noc(C)c1-c1ccc2c(c1)O[C@H](CC1CC1)C(=O)N2CCN1CCOCC1', 'Transcription initiation factor TFIID subunit 1 (Homo sapiens)', 0),
  ('Cc1noc(C)c1-c1ccc2c(c1)O[C@H](CC1CC1)C(=O)N2', 'Transcription initiation factor TFIID subunit 1 (Homo sapiens)', 0),
  ('Cc1noc(C)c1-c1ccc2c(c1)OC(c1ccccc1)C(=O)N2 (configuration not stated)', 'Transcription initiation factor TFIID subunit 1 (Homo sapiens)', 0.3),
  ('Cc1sc2c(c1C)C(c1ccc(Cl)cc1)=N[C@@H](CC(=O)OC(C)(C)C)c1nnc(C)n1-2', 'Transcription initiation factor TFIID subunit 1 (Homo sapiens)', -1.1);

Query :: Could you tell me which ΔTm is on file for Cc1noc(C)c1-c1ccc2c(c1)OC(c1ccccc1F)C(=O)N2 (configuration not stated) ?
Result :: 0.3

Query :: Same lookup for CCN1C(=O)[C@@H](CC2CC2)Oc2cc(-c3c(C)noc3C)ccc21 , please.
Result :: -0.3
